Reference for the values: PubChem BioAssay AID463173

# System: DeltatarO mutant
# TEST_NAME: S. aureus survival, RN4220 and DeltatarO strains – OD600, teichoic acid synthesis inhibitors, primary screen (AID 463173)
# MEASUREMENT_CONTEXT: S. aureus RN4220 wild type/DeltatarO growth, OD600, 18 h, screened at 18.75 µg/mL (by protocol)
About 4,300 (8.3%) of roughly 52,000 compounds were called active. No stated cut-off is given here; in the data, active means survival mostly below about 52% (no sharp cut-off); inactive means mostly above about 56%. The full list was thinned out, with actives kept by preference.
Choose one outcome from this list and give only that: t (active), f (inactive)

Which outcome was entered for the molecule COc1ccc(NC(=O)Cn2c(=O)oc3cc(S(=O)(=O)N4CCCCC4C)ccc32)cc1 (stereo not given) in this test?
t

Which outcome was entered for the molecule COC(=O)c1sc(N2C(=O)c3oc4ccccc4c(=O)c3C2c2ccc(O)cc2)nc1C (stereo not given) in this test?
f

Which outcome was entered for the molecule CCOc1cc(CNc2ccc(O)cc2)cc(Br)c1OCc1ccccc1 in this test?
t

Which outcome was entered for the molecule COc1ccc(Br)cc1CNC(=O)c1cc(=O)[nH]c2ccc(S(=O)(=O)N3CCCCC3C)cc12 (stereo not given) in this test?
f

Which outcome was entered for the molecule CCOC(=O)COc1ccc(CC)cc1C(=O)c1ccn2nc(-c3ccc(Cl)cc3)cc2n1 in this test?
f

Which outcome was entered for the molecule Cc1ccc(N2CC(c3nnc(NC(=O)c4ccco4)s3)CC2=O)cc1Cl (stereo not given) in this test?
f

Which outcome was entered for the molecule COc1ccc(OC)c(CNC(=O)c2cc(=O)[nH]c3ccc(S(=O)(=O)N4CCCCC4C)cc23)c1 (stereo not given) in this test?
t

Which outcome was entered for the molecule COc1ccc(/C=C\c2onc(C)c2S(=O)(=O)N2CCC(C(=O)Nc3cccc(C)c3C)CC2)cc1 in this test?
f

Which outcome was entered for the molecule CCc1ccc(S(=O)(=O)c2nnn3c2nc(NCc2cccc(OC)c2)c2cc(Cl)ccc23)cc1 in this test?
f

Which outcome was entered for the molecule O=C(NC1CSCC1=O)c1ccccc1 (stereo not given) in this test?
f

* * *

# System: DeltatarO mutant
# TEST_NAME: S. aureus survival, RN4220 and DeltatarO strains – OD600, teichoic acid synthesis inhibitors, primary screen (AID 463173)
# MEASUREMENT_CONTEXT: S. aureus RN4220 wild type/DeltatarO growth, OD600, 18 h, hits give low values, screened at 18.75 µg/mL (by protocol)
Screen size: about 52,000 compounds; about 4,300 (8.3%) were called active. The list comes from a sample in which actives are over-represented; it also holds close analogues and randomly drawn compounds.
Consider the following compounds; for each one, report its survival.

Entry CSc1ccc(CCNC(=O)c2cc3cc4cc(C)ccc4nc3s2)cc1 has what survival?
144% (inactive)

Entry Cc1ccc(SCc2nc(-c3ccc(C(=O)NCc4ccccc4Cl)cc3)oc2C)cc1 has what survival?
84% (inactive)

Entry Clc1ccc(CCNc2nc3cc(Cl)c(Cl)cc3n3cnnc23)cc1 has what survival?
91% (inactive)

Entry CCOc1ccc(C(=O)NCC(c2cccs2)S(=O)(=O)c2ccccc2)cc1 (centres undefined) has what survival?
97% (inactive)

Entry Cn1c(=O)c2c(nc(SCC(=O)Nc3ccccc3F)n2Cc2ccc(Cl)cc2)n(C)c1=O has what survival?
80% (inactive)

Entry Cn1c(=O)c2c(nc(SCC(=O)Nc3ccccc3F)n2Cc2ccccc2F)n(C)c1=O has what survival?
65% (inactive)

Entry Cc1cccc(CSc2ncc(Cl)c(C(=O)Nc3sc4c(c3C(N)=O)CCCC4)n2)c1 has what survival?
112% (inactive)

Entry O=C(NCCc1ccc(Cl)cc1)c1cc(-c2ccc(Cl)cc2)n[nH]1 has what survival?
68% (inactive)

Entry CCCCSc1nnc2c(n1)OC(c1ccc(Br)s1)N(C(C)=O)c1ccccc1-2 (centres undefined) has what survival?
47% (inactive)

Entry Cn1c(=O)c2c(nc(SCC(=O)Nc3ccc(F)cc3)n2Cc2ccc(Cl)cc2)n(C)c1=O has what survival?
31% (active)

Entry CCNC(=O)c1c(NC(=O)c2nc(S(=O)(=O)CC)ncc2Cl)sc2c1CCCC2 has what survival?
34% (active)

Entry CCSc1nnc2c(n1)OC(c1ccc(C)cc1)N(C(C)=O)c1ccccc1-2 (centres undefined) has what survival?
55% (inactive)

Entry Cn1c(=O)c2c(nc(SCC(=O)Nc3ccccc3)n2Cc2ccccc2F)n(C)c1=O has what survival?
43% (active)

Entry CCCCSc1nnc2c(n1)OC(c1ccc(Br)s1)Nc1ccccc1-2 (centres undefined) has what survival?
10% (active)

Entry COc1cc(OC)c(N(C)C(=O)CSc2c3c(nc4ccc(Cl)cc24)CCCC3)cc1Cl has what survival?
33% (active)

Entry CCCSc1ncc(Cl)c(C(=O)Nc2sc3c(c2C(=O)OC)CCCC3)n1 has what survival?
53% (inactive)

Entry O=C(c1cccs1)N1CCCc2cc(NS(=O)(=O)c3cc(F)ccc3F)ccc21 has what survival?
73% (inactive)

Entry CCSc1nnc2c(n1)OC(c1ccc(OC)c(OC)c1)N(C(C)=O)c1ccccc1-2 (centres undefined) has what survival?
53% (inactive)

Entry CCCSc1nnc2c(n1)OC(c1cccs1)Nc1ccc(Br)cc1-2 (centres undefined) has what survival?
30% (active)
